# TESTED ON: HIV-1 gp41 (strain HXB2) (HIV-1 strain HXB2, UniProt P04578 512-856)
# TEST NAME: cell-based or functional assay
Numbered stars: 1 amine (or outer) side, 2 acyl side, 3 side chain; on linkers, the order of the positions; unused ones are H or OH. Bridge positions count the residues as written; N and C are the ends. Square brackets hold non-standard residues; d marks the D form. Ends that are not written are not given here. I, II: the chains in the order shown. Cys(Acm) = Cys protected with acetamidomethyl (Acm), CC(=O)NCSC[C@H](N[*:1])C(=O)[*:2]; Ttds = O=C(CCC(=O)[*:2])NCCCOCCOCCOCCCN[*:1]
READOUT NAME: IC50, anti-viral activity against HIV-HXB2

BINDER | OBS VALUE
ac-C(Acm)(thioE10N17)3 (bridge I:N-I:4; thioether (positions not given here); not fully specified (bridges); also: trimer, copy numbers of chains not given here) peptide 1: Ac-[Cys(Acm)][Ttds]CCIEEKIEEIEELLQLTVWGIKQLQARIL peptide 2: Ac-GGGIEEKIEEIEELLQLTVWGIKQLQARIL | 150 nM
Ac-CCGGIEKKIEAIEKKIEAIEKLLQLTVWGIKQLQARIL-NH2 (not fully specified (bridges); also: homotrimer of three chains, cysteine pairing not given here) [(CCS17N17)3] | 0.33 nM
Ac-CCGGIKKEIEAIKKEQEAIKKKIEAIEKLLQLTVWGIKALAAAIA-NH2 (not fully specified (bridges); also: homotrimer of three chains, cysteine pairing not given here) [(CCIZN17Ala4)3] | 47 nM
IKKKIEAIEKLLQLTVWGIKQLQARILGGCC (not fully specified (bridges); also: homotrimer of three chains, cysteine pairing not given here) [(I10N17CC)3] | 77.6 nM
Ac-IKKEIEAIKKEQEAIKKKIEAIEKLLQLTVWGIKALAAAIA-NH2 [IZN17Ala4] | 25.3 nM
